settings: in ethanol, 293.15 K
observation type: solubility (mole fraction)

smiles_string=CC(=O)c1c(C)cc(C(C)(C)C)cc1C observed=0.27

----------
settings: in methanol, 303.15 K
observation type: solubility (mole fraction)

smiles_string=CC(=O)c1c(C)cc(C(C)(C)C)cc1C observation_type="solubility (mole fraction)" observed=0.478

----------
conditions: in cyclohexane, 283.15 K
observation type: solubility (mole fraction)

smiles_string=CC(=O)c1c(C)cc(C(C)(C)C)cc1C observed=0.407
